src = PubChem BioAssay (NCI)

# Test system: A549 NSCLC
# assayDetails: NCI tumour cell line growth inhibition, 48 h

molecule: COC(=O)[C@]12CC3C=CC1N(C3)C(CBr)c1c2n(S(=O)(=O)c2ccccc2)c2ccccc12 (some centres not stated)
TGI: > 100 µM

molecule: CC(C)(C)C(=O)OCOP(=O)(NCc1ccccc1)C1CCCN(O)C1=O (configuration not stated)
TGI: > 100 µM

molecule: CCCCN1C(=O)C2Cc3c([nH]c4ccccc34)C(c3cccc(O)c3)N2C1=O (configuration not stated)
TGI: 35 µM

molecule: CCOC(=O)C1(C#N)OC(=O)c2cnccc21 (configuration not stated)
TGI: > 100 µM

molecule: COc1ccc2c(c1)C(=O)c1c-2n(CCCN(C)C)c(=O)c2ccccc12
TGI: 0.559 µM

molecule: NS(=O)(=O)OC[C@H]1C[C@@H](Nc2ccnc3cc(-c4cccc(SC(F)(F)F)c4)nn23)[C@H](O)[C@@H]1O
TGI: 0.445 µM

molecule: Cc1cc(S(=O)(=O)NC2=NCc3nc4ccccc4n32)c(S)cc1Cl
TGI: 83.2 µM

molecule: CC(C)(C)C1=CC(=C(P(=O)(O)O)P(=O)(O)O)C=C(C(C)(C)C)C1=O
TGI: > 50 µM

molecule: CCOCCOCCOCc1nc(C#N)c(N)o1
TGI: > 100 µM

molecule: COc1ccc2ncn(-c3cc(O[C@H](C)c4ccccc4C(F)(F)F)c(C(N)=O)s3)c2c1
TGI: 4.22 µM

molecule: CN1C(=O)C2(C)SC1(c1ccccc1)C1C(=O)N(c3ccccc3)C(=O)C12 (configuration not stated)
TGI: > 100 µM

molecule: CO/C=C/C=C(\C#N)C(=O)OC
TGI: > 100 µM

molecule: CCOC(=O)c1cc(C2CCN(c3ccccc3)C2=O)c(/C(O)=C/C(C)=O)[nH]1 (configuration not stated)
TGI: > 100 µM

molecule: CCOC(=O)c1nc2cc(C(F)(F)F)ccc2nc1Oc1ccc(C#N)cc1
TGI: > 100 µM

molecule: CCOC1CN=C(Nc2cccc3ccccc23)S1 (configuration not stated)
TGI: > 10 µM

molecule: COc1ccccc1/C=C/c1ccnc2ccccc12
TGI: 31 µM

molecule: CNC(=O)OCc1nc(SC)n(C)c1CO
TGI: > 100 µM

molecule: O=C1N[C@@H]2[C@@H](O)[C@@H](O)[C@H](O)C[C@H]2c2cc3c(c(O)c21)OCCO3
TGI: 5.58 µM

molecule: CSc1ncnc2c1ncn2CCC(=O)O
TGI: > 100 µM

molecule: CCOC(=O)C1=CCCC[C@H]1S(=O)(=O)Nc1ccc(F)cc1Cl
TGI: > 100 µM

molecule: COc1cc(C2C(Cl)C(=O)N2NC(=O)Cc2ccccc2)cc(Br)c1O (configuration not stated)
TGI: > 100 µM

molecule: COc1cc(/C=C2\C(=O)N(C(=O)Cc3ccccc3)N=C2C)cc(OC)c1OC
TGI: > 100 µM

molecule: CC(=O)O[C@@H]1C[C@]2(C(=O)c3ccccc3)C(=O)C(=O)S[C@]12c1ccccc1
TGI: > 100 µM

molecule: CC1(C)OC2C(CCP(=O)(O)O)OC(c3nc(C(N)=O)cs3)C2O1 (configuration not stated)
TGI: > 100 µM

molecule: Cc1nc([N+](=O)[O-])cn1-c1nc2ccccn2c1[N+](=O)[O-]
TGI: > 100 µM

molecule: CNC(=O)c1c(C)oc2cc(Oc3ncnc4cc(OC)c(OC)cc34)ccc12
TGI: > 100 µM

molecule: CN(Cc1ccccc1)Cn1ccnc1
TGI: > 100 µM

molecule: O=C1Nc2c(ccc(Cl)c2Cl)/C1=C/c1cc(Br)c(O)c(Br)c1
TGI: > 100 µM

molecule: CC1(C)OC2C(COC(c3ccccc3)(c3ccccc3)c3ccccc3)OC(c3c[nH]c4c(N)ncnc34)C2O1 (configuration not stated)
TGI: 13.9 µM

molecule: COc1cccc(/C=N/n2c(Cc3ccccc3)n[nH]c2=O)c1
TGI: > 100 µM

molecule: C=CCC1(CN(C)C)CC/C(=C\c2ccc(OC)cc2)C1=O (configuration not stated)
TGI: > 100 µM

molecule: O=C(CCC(=O)Nc1ccc(Cl)c(Cl)c1)Cc1nc2ccccc2o1
TGI: > 100 µM

molecule: CCc1nc(N)nc(N)c1-c1ccc(Cl)c([N+](=O)[O-])c1
TGI: > 100 µM

molecule: CC(=O)Nc1ccc(/C=C/C(=O)c2sc(-c3cccnc3)nc2C)cc1
TGI: > 100 µM

molecule: C=C(C)[C@H]1CC[C@@]2(C)C(C1)[C@H](C)CC[C@@H]2O (some centres not stated)
TGI: > 100 µM

molecule: Cc1ccc(CC2(C(=O)O)Cc3ccc(C)cc3C2)cc1 (configuration not stated)
TGI: > 100 µM

molecule: O=c1oc2ccc3ccccc3c2cc1-c1nnc(Nc2ccccc2)s1
TGI: 59 µM

====

# Test system: UACC-257 melanoma
# assayDetails: NCI tumour cell line growth inhibition, 48 h
endpoint: TGI

compound: O=C(COc1ccc(Cl)c(Cl)c1)Nc1ccc[n+](Cc2ccc(S(=O)(=O)F)c(Cl)c2)c1
endpoint: TGI
result: > 100 µM
//
compound: CC1=NN(c2nc(N)nc(CN3CCOCC3)n2)C(C)(C)C1
endpoint: TGI
result: > 100 µM
//
compound: CC(C)(C)[Si](OC1CCOC1=O)(c1ccccc1)c1ccccc1 (centres undefined)
endpoint: TGI
result: 50.4 µM
//
compound: O=C1/C(=C/c2cccc(Cl)c2)CCCc2ccccc21
endpoint: TGI
result: 46.5 µM
//
compound: CO/C=C/C=C(\C#N)C(=O)OC
endpoint: TGI
result: > 100 µM
//
compound: CN(Cc1ccccc1)Cn1ccnc1
endpoint: TGI
result: 47.4 µM
//
compound: Cc1ccc(C)c(N2C(=O)C(=O)C(c3nc4ccccc4s3)/C(=N/N)C2=O)c1 (centres undefined)
endpoint: TGI
result: > 74.5 µM
//
compound: CC(C)N(C(=O)C12C3C4C5(C#N)C3C1(C#N)C5C42C#N)C(C)C (centres undefined)
endpoint: TGI
result: > 100 µM
//
compound: CCn1cc2c(=O)n3ncn(-c4ccc(Br)cc4)c3nc2n1
endpoint: TGI
result: > 100 µM

====

Overview of recorded TGI for various compounds
# Tested on: SK-OV-3 ovarian
# assayDetails: NCI tumour cell line growth inhibition, 48 h
Where a SMILES comes first, the peptide text is derived from it. The star is where a group is joined. Fmoc = O=C(OCC1c2ccccc2-c2ccccc21)*; OtBu = CC(C)(C)O*

compound: COC(=O)CCC(=O)c1ccc2c(c1)CCC2
TGI: > 100 µM
--
compound: COc1ccc(C(=O)C(CN(C)C)CN(C)C)cc1
TGI: 59.5 µM
--
compound: COc1cc2c(c(OC)c1OC)-c1ccc(OC)c(=O)cc1C(NC(=O)COc1ccccc1)CC2 (centres undefined)
TGI: 0.766 µM
--
compound: C[C@@H]1C[C@H]2[C@@H]3CCC4=CC(=O)C=C[C@]4(C)[C@@]3(F)[C@@H](O)C[C@]2(C)[C@@]1(O)C(=O)CO
TGI: > 100 µM
--
compound: C=CCOC(=O)CC[C@H](NC(=O)[C@@H](CCC(F)(F)F)Cc1ccc(O)cc1)C(=O)OCC=C
TGI: > 100 µM
--
compound: O=C(O)CCNCC(=O)O
TGI: > 100 µM
--
compound: O=C1N[C@@H]2[C@@H](O)[C@@H](O)[C@H](O)C[C@H]2c2cc3c(c(O)c21)OCCO3
TGI: 4.03 µM
--
compound: O=C(COc1ccc(Cl)c(Cl)c1)Nc1ccc[n+](Cc2ccc(S(=O)(=O)F)c(Cl)c2)c1
TGI: > 100 µM
--
compound: COC1CCC(OS(C)(=O)=O)C(CO)O1 (centres undefined)
TGI: > 100 µM
--
compound: COc1cc(/C=C2\CC3C4CC=C5C[C@@H](OC(C)=O)CC[C@]5(C)C4CC[C@]3(C)C2=O)ccc1OCCN1CCCCC1 (some centres undefined)
TGI: 8.5 µM
--
compound: CC(C)(C)C1=CC(=C(P(=O)(O)O)P(=O)(O)O)C=C(C(C)(C)C)C1=O
TGI: > 50 µM
--
compound: CC(=O)Nc1ccc(/C=C/C(=O)c2sc(-c3cccnc3)nc2C)cc1
TGI: > 100 µM
--
compound: C/C=C(\C)c1cc(=O)c2c(C)cc3c(c2o1)C(=O)c1c(O)c(C2CC(C)(N(C)C)C(OC(C)=O)C(C)O2)cc(C2CC(N(C)C)C(O)C(C)O2)c1C3=O (centres undefined)
TGI: > 50 µM
--
compound: COC1/C=C(C)/C=C/C(C)/C=C/C(=O)OC(/C(C)=C/C=C(\C)CNC(=O)[C@H](CO)NC=O)C(C)/C=C/C=C/C(OC)CC/C=C(C)/C=C/C1 (some centres undefined)
TGI: > 1 µM
--
compound: C=CCNC(=O)NCCCCC(NC(C)=O)C(=O)NCc1ccccc1 (centres undefined)
TGI: > 100 µM
--
compound: O=c1ccc2ccc(OP(=O)(O)O)cc2o1
TGI: > 100 µM
--
compound: O=C(NCCCCN1CCOCC1)c1cc2ccccc2o1
TGI: > 100 µM
--
compound: Oc1ccc(C=Nc2ccccc2O)cc1
TGI: > 100 µM
--
compound: O=C(/C=C\c1ccccc1O)c1ccc(O)cc1O
TGI: > 100 µM
--
compound: O=C1/C(=C\c2ccc(Cl)cc2)N=C(c2ccccc2)N1n1c(=O)cn[nH]c1=S
TGI: > 100 µM
--
compound: COc1cccc(/C=N/n2c(Cc3ccccc3)n[nH]c2=O)c1
TGI: > 100 µM
--
compound: O=C(CSCC(=O)N/N=C/c1ccc2c(c1)OCO2)N/N=C/c1ccc2c(c1)OCO2
TGI: > 100 µM
--
compound: CC(=O)Nc1ccc2c(c1)/C(=C\c1ccc([N+](C)(C)C)cc1)c1ccccc1-2
TGI: > 100 µM
--
compound: COc1c/c(=C2\C=c3ccccc3=N2)[nH]/c1=C\c1[nH]c(C)cc1C
TGI: > 88.7 µM
--
compound: CCOC(=O)C1(C#N)OC(=O)c2cnccc21 (centres undefined)
TGI: > 100 µM
--
compound: Cc1cnc2ccc(C)c([N+](=O)[O-])c2c1NCCCN(C)C
TGI: > 100 µM
--
compound: CC(C)C(NC(=O)OCC1c2ccccc2-c2ccccc21)C(=O)NC(CCC(=O)OC(C)(C)C)C(=O)OC(C)(C)C (centres undefined) (Fmoc-Val-Glu(OtBu)-OtBu; configuration not given here)
TGI: > 100 µM
--
compound: CNC(=O)c1c(C)oc2cc(Oc3ncnc4cc(OC)c(OC)cc34)ccc12
TGI: > 100 µM
--
compound: O=C(O)CSc1n[nH]c(=O)[nH]c1=O
TGI: > 100 µM
